meta.source: patent US10287266B2

Below, each of the compounds is paired with its reported AC50 value.
# experimental-system: SHP2 (Homo sapiens, UniProt Q06124)
# Sequence (Q06124 whole entry): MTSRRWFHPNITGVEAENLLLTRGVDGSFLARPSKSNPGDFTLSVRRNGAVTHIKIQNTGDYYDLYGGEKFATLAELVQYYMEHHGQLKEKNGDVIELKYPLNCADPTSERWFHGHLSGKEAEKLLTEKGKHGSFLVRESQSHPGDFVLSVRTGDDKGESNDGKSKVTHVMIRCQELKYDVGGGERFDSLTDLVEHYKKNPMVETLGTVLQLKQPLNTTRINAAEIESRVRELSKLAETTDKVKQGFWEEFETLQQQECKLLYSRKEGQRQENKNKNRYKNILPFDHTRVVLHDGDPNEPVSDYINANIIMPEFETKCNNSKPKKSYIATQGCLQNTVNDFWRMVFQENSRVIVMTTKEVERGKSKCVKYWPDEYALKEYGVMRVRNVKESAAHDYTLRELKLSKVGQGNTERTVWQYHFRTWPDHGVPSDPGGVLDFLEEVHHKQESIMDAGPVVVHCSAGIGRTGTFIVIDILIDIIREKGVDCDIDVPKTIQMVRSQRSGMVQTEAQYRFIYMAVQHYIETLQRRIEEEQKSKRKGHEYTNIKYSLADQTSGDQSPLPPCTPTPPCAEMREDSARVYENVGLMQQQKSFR
# test-description: SHP2 Allosteric Inhibition Assay
# Type: biochemical
# cond: 0.5 nM SHP2 activated with 0.5 μM peptide IRS1_pY1172(dPEG8)pY1222; surrogate substrate DiFMUP, prompt fluorescence, 25° C.
Give a bare numeral; the unit µM is implied.

In the examples that follow, each entry is paired with its recorded AC50.
compound=C[C@H]1OCC2(CCN(c3cnc(Sc4ccnc(N)c4Cl)cn3)CC2)[C@@H]1N experimental_endpoint=AC50 data_value=0.0057
compound=CC1(CN)CCN(c2cnc(Sc3ccnc(N)c3Cl)cn2)CC1 experimental_endpoint=AC50 data_value=0.0107
compound=CC(C)C1(CN)CCN(c2cnc(Sc3ccnc(N)c3Cl)cn2)CC1 experimental_endpoint=AC50 data_value=0.0178
compound=Nc1cc(Sc2cnc(N3CCC4(CCC[C@H]4N)CC3)cn2)c(Cl)c(Cl)n1 experimental_endpoint=AC50 data_value=0.0193
compound=C[C@@H]1OCC2(CCN(c3cnc(Sc4ccnc(F)c4Cl)cn3)CC2)[C@@H]1N experimental_endpoint=AC50 data_value=0.0441
compound=C[C@H]1C[C@@H](N)C2(CCN(c3cnc(Sc4cc(N)nc(Cl)c4Cl)cn3)CC2)C1 experimental_endpoint=AC50 data_value=0.0351
compound=Nc1nccc(Sc2cnc(N3CCC4(CCCN4)CC3)cn2)c1Cl experimental_endpoint=AC50 data_value=0.0634
compound=CC(C)c1ccccc1Sc1cnc(N2CCC3(CCC[C@H]3N)CC2)cn1 experimental_endpoint=AC50 data_value=0.0446

Now examine the next entry.
Exercise: // lookup AC50 | system=SHP2 (Homo sapiens, UniProt Q06124) | key= Nc1nccc(Sc2cnc(N3CCC4(CC3)CC(F)(F)C[C@H]4N)cn2)c1Cl
Solution: 0.0238

----------
Below, each of the compounds is paired with its reported log10 of AC50 value.
# experimental-system: UniProt Q06124
# test-description: SHP2 Allosteric Inhibition Assay
# Type: biochemical
# cond: 0.5 nM SHP2 activated with 0.5 μM peptide IRS1_pY1172(dPEG8)pY1222; surrogate substrate DiFMUP, prompt fluorescence, 25° C.
# Excerpt: SHP2 Allosteric Inhibition Assay SHP2 is allosterically activated through binding of bis-tyrosyl-phorphorylated peptides to its Src Homology 2 (SH2) domains. […] The catalytic activity of SHP2 was monitored using the surrogate substrate DiFMUP in a prompt fluorescence assay format. […]
// units: nM (pre-log); metric: AC50; scale: log10

In the examples that follow, each entry is paired with its recorded log10 of AC50.
compound="Nc1nccc(Sc2cnc(N3CCC4(CC3)C[C@@H](F)C[C@H]4N)cn2)c1Cl [Example 27]" experimental_system="UniProt Q06124" data_value=1.08
compound="CC(C)(C)c1ccc(Sc2cnc(N3CCC4(CCC[C@@H]4N)CC3)cn2)cc1 [Example 132]" experimental_system="UniProt Q06124" data_value=3.29
compound="N[C@@H]1COCC12CCN(c1cnc(Sc3ccncc3C(F)(F)F)cn1)CC2 [Example 49]" experimental_system="UniProt Q06124" data_value=1.82
compound="N[C@@H]1CCCC12CCN(c1cnc(Sc3ccc(Br)c(Cl)c3)cn1)CC2 [Example 91]" experimental_system="UniProt Q06124" data_value=2.82
compound="C[C@@H]1OCC2(CCN(c3cnc(Sc4cc[nH]c(=O)c4Cl)cn3)CC2)[C@@H]1N [Example 109]" experimental_system="UniProt Q06124" data_value=1.46
compound="N[C@@H]1CCCC12CCN(c1cnc(Sc3cccc(F)c3Cl)cn1)CC2 [Example 92]" experimental_system="UniProt Q06124" data_value=0.76

Exercise: Sample Cc1c(Sc2cnc(N3CCC4(CCC[C@H]4N)CC3)cn2)cccc1C(F)(F)F [Example 98] — what was its log10 of AC50?
Solution: 2.47

Exercise: Sample CCCC1(CN)CCN(c2cnc(Sc3ccnc(N)c3Cl)cn2)CC1 [Example 31] — what was its log10 of AC50?
Solution: 1.25

Exercise: Sample N[C@@H]1CCCC12CCN(c1cnc(Sc3cccnc3)cn1)CC2 [Example 106] — what was its log10 of AC50?
Solution: 4.05

Exercise: Sample N[C@H]1CCCC12CCN(c1cnc(Sc3ccccc3)cn1)CC2 [Example 130] — what was its log10 of AC50?
Solution: 2.79

Exercise: Sample N[C@@H]1CCCC12CCN(c1cnc(Sc3cccnc3C(F)(F)F)cn1)CC2 [Example 35] — what was its log10 of AC50?
Solution: 1.32

Exercise: Sample N[C@@H]1CCCC12CCN(c1cnc(Sc3ccnc(F)c3Cl)cn1)CC2 [Example 99] — what was its log10 of AC50?
Solution: 1.64

Exercise: Sample CCC1(CN)CCN(c2cnc(Sc3ccnc(N)c3Cl)cn2)CC1 [Example 18] — what was its log10 of AC50?
Solution: 0.91

Exercise: Sample C[C@@H]1OCC2(CCN(c3cnc(Sc4ccccc4)cn3)CC2)[C@@H]1N [Example 108] — what was its log10 of AC50?
Solution: 1.72

Exercise: Sample CC(C)(C)c1cccc(Sc2cnc(N3CCC4(CCC[C@@H]4N)CC3)cn2)c1 [Example 127] — what was its log10 of AC50?
Solution: 1.65

Exercise: Sample N[C@@H]1COCC12CCN(c1cnc(Sc3ccnc(F)c3Cl)cn1)CC2 [Example 34] — what was its log10 of AC50?
Solution: 1.29

Exercise: Sample COc1cccc(Sc2cnc(N3CCC4(CCC[C@H]4N)CC3)cn2)c1 [Example 74] — what was its log10 of AC50?
Solution: 1.58

Exercise: Sample COc1ccccc1Sc1cnc(N2CCC3(CCC[C@H]3N)CC2)cn1 [Example 69] — what was its log10 of AC50?
Solution: 1.62

----------
# experimental-system: SHP2 (Homo sapiens, UniProt Q06124)
# test-description: SHP2 Allosteric Inhibition Assay
# Assay type: biochemical
# cond: 0.5 nM SHP2 activated with 0.5 μM peptide IRS1_pY1172(dPEG8)pY1222; surrogate substrate DiFMUP, prompt fluorescence, 25° C.
# Source text: SHP2 Allosteric Inhibition Assay SHP2 is allosterically activated through binding of bis-tyrosyl-phorphorylated peptides to its Src Homology 2 (SH2) domains. […] The catalytic activity of SHP2 was monitored using the surrogate substrate DiFMUP in a prompt fluorescence assay format. […]
Below, each of the compounds is paired with its reported log10(AC50) value.
// units: nM (pre-log); metric: AC50; scale: log10

In the examples that follow, each entry is paired with its recorded log10(AC50).
compound=N[C@@H]1CCCC12CCN(c1cnc(Sc3ccccc3Cl)cn1)CC2 data_value=1.24
compound="CC1(CN)CCN(c2cnc(Sc3ccnc(N)c3Cl)cn2)CC1O (single isomer, unassigned) [Example 39]" data_value=1.45

Exercise: Sample N[C@@H]1CCCC12CCN(c1cnc(Sc3cnnc(O)c3Cl)cn1)CC2 — what was its log10(AC50)?
Solution: 2.33

Exercise: Sample CC1CCC2(CCN(c3cnc(Sc4ccnc(N)c4Cl)cn3)CC2)[C@@H]1N (some centres unmarked) [Example 13] — what was its log10(AC50)?
Solution: 0.77

Exercise: Sample CCc1ccc(Sc2cnc(N3CCC4(CCC[C@@H]4N)CC3)cn2)cc1 — what was its log10(AC50)?
Solution: 2.46

Exercise: Sample CC1(CN)CCN(c2cnc(Sc3ccnc(N)c3Cl)cn2)CC1O (single isomer, unassigned) [Example 40] — what was its log10(AC50)?
Solution: 2.03

Exercise: Sample Nc1nccc(Sc2cnc(N3CCC4(CC3)COCCN4)cn2)c1Cl — what was its log10(AC50)?
Solution: 2.33

Exercise: Sample Cc1cccc(Sc2cnc(N3CCC4(CCC[C@@H]4N)CC3)cn2)c1 — what was its log10(AC50)?
Solution: 1.88

Exercise: Sample N[C@@H]1CCCC12CCN(c1cnc(Sc3cccc(CN4CCOCC4)c3)cn1)CC2 — what was its log10(AC50)?
Solution: 1.59

Exercise: Sample N[C@@H]1CCCC12CCN(c1cnc(Sc3cc[nH]c(=O)c3Cl)cn1)CC2 — what was its log10(AC50)?
Solution: 1.90

Exercise: Sample CCc1cccc(Sc2cnc(N3CCC4(CCC[C@H]4N)CC3)cn2)c1 — what was its log10(AC50)?
Solution: 2.72

Exercise: Sample N[C@@H]1CCCC12CCN(c1cnc(Sc3ccc(F)cc3F)cn1)CC2 — what was its log10(AC50)?
Solution: 2.18

Exercise: Sample CC1(CN)CCN(c2cnc(Sc3cccc(N)c3Cl)cn2)CC1 — what was its log10(AC50)?
Solution: 1.00

Exercise: Sample Nc1nccc(Sc2cnc(N3CCC4(CC3)C[C@H](F)C[C@H]4N)cn2)c1Cl — what was its log10(AC50)?
Solution: 0.59

Exercise: Sample N[C@H]1CCCC12CCN(c1cnc(Sc3ccccc3OC(F)(F)F)cn1)CC2 — what was its log10(AC50)?
Solution: 2.11

Exercise: Sample CC1(CN)CCN(c2cnc(Sc3cc(N)nc(Cl)c3Cl)cn2)CC1 — what was its log10(AC50)?
Solution: 2.19

Exercise: Sample C[C@H]1OCC2(CCN(c3cnc(Sc4ccnc(N)c4Cl)cn3)CC2)[C@H]1N — what was its log10(AC50)?
Solution: 2.66

Exercise: Sample CC(C)(C)c1ccccc1Sc1cnc(N2CCC3(CCC[C@H]3N)CC2)cn1 — what was its log10(AC50)?
Solution: 3.16

Exercise: Sample C[C@@H]1C[C@@H](N)C2(CCN(c3cnc(Sc4ccnc(N)c4Cl)cn3)CC2)C1 — what was its log10(AC50)?
Solution: 1.23

Exercise: Sample CC1(CN)CCN(c2cnc(Sc3ccc(N)cc3Cl)cn2)CC1 — what was its log10(AC50)?
Solution: 1.49

Exercise: Sample C[C@H]1C[C@@H](N)C2(CCN(c3cnc(Sc4ccnc(N)c4Cl)cn3)CC2)C1 — what was its log10(AC50)?
Solution: 0.78
